Would you mind telling me the reported Max Editing of each entry?
Tested on: TTR
assayInfo: TTR editing dose response (EC50, maximum editing) in primary human hepatocytes treated with LNP formulated U-depleted Spy Cas9 mRNA and sgRNAs
Format: cell-based
conditionDescription: LNP formulated U-depleted Spy Cas9 mRNA and human specific sgRNAs, dose response
Procedure: Primary liver hepatocytes. Primary human liver hepatocytes (PHH) and primary cynomolgus liver hepatocytes (PCH) (Gibco) were cultured per the manufacturer's protocol (Invitrogen, protocol 11.28.2012). […] Cells were counted and plated on Bio-coat collagen I coated 96-well plates (ThermoFisher, Cat. 877272) at a density of 33,000 cells/well for human or 60,000 cells/well for cyno (or 65,000 cells/well when assaying effects on TTR protein, described further below). […]
Strand notation (5' to 3'): a small letter for the sugar, then the base; units joined by * are phosphorothioate-linked, units joined directly phosphodiester-linked; [ ] holds rarer units or linkages, { } end groups; capitals alone tell only the bases. m = 2'-O-methyl; r = 2'-OH (RNA)
Numbers only, in %.

{"molecule": "G000500: TTR sgRNA modified sequence, Human, SEQ ID NO: 107; guide sequence of CR003337 (nucleic acid) guide: mC*mC*mA*rGrUrCrCrArGrCrArArGrGrCrArGrArGrGrGrUrUrUrUrArGrAmGmCmUmAmGmAmAmAmUmAmGmCrArArGrUrUrArArArArUrArArGrGrCrUrArGrUrCrCrGrUrUrArUrCrAmAmCmUmUmGmAmAmAmAmAmGmUmGmGmCmAmCmCmGmAmGmUmCmGmGmUmGmCmU*mU*mU*mU", "recordedMetric": "Max Editing", "scaleUnit": "%", "reportedValue": 88.70}

Could you now consider this next molecule?
Given item G000499: TTR sgRNA modified sequence, Human, SEQ ID NO: 106; guide sequence of CR005303 (nucleic acid) guide: mU*mG*mA*rArUrCrCrArArGrUrGrUrCrCrUrCrUrGrArGrUrUrUrUrArGrAmGmCmUmAmGmAmAmAmUmAmGmCrArArGrUrUrArArArArUrArArGrGrCrUrArGrUrCrCrGrUrUrArUrCrAmAmCmUmUmGmAmAmAmAmAmGmUmGmGmCmAmCmCmGmAmGmUmCmGmGmUmGmCmU*mU*mU*mU , the value recorded as its Max Editing is 96.31
